B1: Protein PTHB1 (Homo sapiens), Q3SYG4 (parent)
chain: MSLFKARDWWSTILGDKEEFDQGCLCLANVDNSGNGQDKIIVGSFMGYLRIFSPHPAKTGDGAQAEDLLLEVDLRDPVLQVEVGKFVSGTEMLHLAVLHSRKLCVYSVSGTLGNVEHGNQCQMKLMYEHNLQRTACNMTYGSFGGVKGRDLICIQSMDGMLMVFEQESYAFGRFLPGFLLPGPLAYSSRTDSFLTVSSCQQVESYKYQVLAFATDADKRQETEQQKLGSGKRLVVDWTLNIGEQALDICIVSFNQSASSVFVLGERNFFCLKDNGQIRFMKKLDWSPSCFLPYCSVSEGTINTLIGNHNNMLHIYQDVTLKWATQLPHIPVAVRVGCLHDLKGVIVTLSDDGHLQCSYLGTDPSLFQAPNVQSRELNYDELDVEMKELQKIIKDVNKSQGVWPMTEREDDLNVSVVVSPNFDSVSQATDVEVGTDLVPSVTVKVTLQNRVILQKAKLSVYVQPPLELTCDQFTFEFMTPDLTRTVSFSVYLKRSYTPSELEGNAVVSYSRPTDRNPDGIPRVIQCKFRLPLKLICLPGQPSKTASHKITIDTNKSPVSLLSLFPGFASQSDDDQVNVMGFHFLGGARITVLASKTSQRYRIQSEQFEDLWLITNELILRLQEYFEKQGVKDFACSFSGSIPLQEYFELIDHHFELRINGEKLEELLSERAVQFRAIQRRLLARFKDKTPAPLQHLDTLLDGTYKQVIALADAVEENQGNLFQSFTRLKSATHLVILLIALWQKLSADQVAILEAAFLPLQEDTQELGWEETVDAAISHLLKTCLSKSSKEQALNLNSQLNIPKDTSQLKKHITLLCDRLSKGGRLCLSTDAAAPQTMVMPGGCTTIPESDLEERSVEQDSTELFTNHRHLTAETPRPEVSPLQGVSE
partner: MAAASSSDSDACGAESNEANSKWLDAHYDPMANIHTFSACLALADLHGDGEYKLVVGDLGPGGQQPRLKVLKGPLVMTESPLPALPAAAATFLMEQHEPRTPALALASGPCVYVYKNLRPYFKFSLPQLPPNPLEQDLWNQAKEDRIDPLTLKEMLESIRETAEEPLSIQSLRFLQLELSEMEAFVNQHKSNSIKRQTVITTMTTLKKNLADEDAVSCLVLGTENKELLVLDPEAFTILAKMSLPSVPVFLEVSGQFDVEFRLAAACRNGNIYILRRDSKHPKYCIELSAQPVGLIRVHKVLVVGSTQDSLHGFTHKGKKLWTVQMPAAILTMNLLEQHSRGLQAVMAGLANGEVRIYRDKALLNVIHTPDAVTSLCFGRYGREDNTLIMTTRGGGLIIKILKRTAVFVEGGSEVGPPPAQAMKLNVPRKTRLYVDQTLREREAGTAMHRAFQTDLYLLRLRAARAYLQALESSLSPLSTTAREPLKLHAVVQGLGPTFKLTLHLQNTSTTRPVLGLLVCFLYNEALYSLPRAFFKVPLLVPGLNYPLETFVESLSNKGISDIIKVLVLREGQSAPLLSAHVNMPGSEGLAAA

Variants of: B1
SETUP CONDITIONS: with bbs1_human BBS1, Q8NFJ9
MEASUREMENT NAME: effect of a mutation on the interaction

For orientation, consider the following solved cases.
[[record]]
variant_label = "E607A"
reading = "with no effect"

[[record]]
variant_label = "L529E"
reading = "with no effect"

[[record]]
variant_label = "Y508A"
reading = "with no effect"

[[record]]
variant_label = "M578E"
reading = "with no effect"

[[record]]
variant_label = "W610E"
reading = "with no effect"


Task: Using the record for Y599K , state its measured effect of a mutation on the interaction.
Output: with no effect
